test_name: Pharmacokinetics test using mice
Type: in vivo
particulars: male, Balb/C, mouse, plasma, PO (10 mg/kg)
assay_metric: half-life (h)
Numbers only, in h.

Look at this compound and give its reported half-life. Nc1ncc(-c2cc(-c3cnn(CC(F)(F)F)c3)ccc2F)nc1C(=O)N[C@@H]1CNC[C@@H](F)C1
1.92

====

System: human breast cancer cell line MCF-7
test_name: Cancer cell growth inhibition test (CellTiter-Glo)
Type: cell-based
particulars: MCF-7, 72 hours, combination with cisplatin; read-out: Administered in combination with cisplatin (IC50)
I'd be grateful if you could share measured pIC50 for these entries.
Answers are plain numbers, as −log10 of the molar value.

I have 4 compounds here; please give me pIC50 for each one.
1. CC(C)(O)Cn1cc(-c2cc(-c3cnc(N)c(C(=O)N[C@@H]4CNCC(F)(F)C4)n3)c(F)cn2)cn1
2. Nc1ncc(-c2cc(-c3cnn(CC(F)(F)F)c3)ncc2F)nc1C(=O)N[C@@H]1CNCC(F)(F)C1
3. Nc1ncc(-c2ccnc(-c3cnn(CC(F)(F)F)c3)c2)nc1C(=O)N[C@@H]1CNC[C@@H](F)C1
4. Nc1ncc(-c2ccnc(-c3cnn(CC(F)(F)F)c3)c2)nc1C(=O)N[C@@H]1CNCC(F)(F)C1

1: 5.34; 2: 5.46; 3: 5.64; 4: 5.53

====

test_name: Pharmacokinetics test using mice
Assay type: in vivo
particulars: male, Balb/C, mouse, plasma, iv, 1 mg/kg, IV (1 mg/kg), read-out: Vss
assay_metric: Vd (L/kg)
Answers are plain numbers, in L/kg.

Look at this molecule and give its reported Vd. Nc1ncc(-c2cc(-c3cnn(CC(F)(F)F)c3)ccc2F)nc1C(=O)N[C@@H]1CNC[C@@H](F)C1
5.22

====

I'd be grateful if you could share measured pIC50 for these entries.
subject_of_test: Chk2 kinase (Homo sapiens (Human), UniProt O96017)
Sequence (O96017 whole entry): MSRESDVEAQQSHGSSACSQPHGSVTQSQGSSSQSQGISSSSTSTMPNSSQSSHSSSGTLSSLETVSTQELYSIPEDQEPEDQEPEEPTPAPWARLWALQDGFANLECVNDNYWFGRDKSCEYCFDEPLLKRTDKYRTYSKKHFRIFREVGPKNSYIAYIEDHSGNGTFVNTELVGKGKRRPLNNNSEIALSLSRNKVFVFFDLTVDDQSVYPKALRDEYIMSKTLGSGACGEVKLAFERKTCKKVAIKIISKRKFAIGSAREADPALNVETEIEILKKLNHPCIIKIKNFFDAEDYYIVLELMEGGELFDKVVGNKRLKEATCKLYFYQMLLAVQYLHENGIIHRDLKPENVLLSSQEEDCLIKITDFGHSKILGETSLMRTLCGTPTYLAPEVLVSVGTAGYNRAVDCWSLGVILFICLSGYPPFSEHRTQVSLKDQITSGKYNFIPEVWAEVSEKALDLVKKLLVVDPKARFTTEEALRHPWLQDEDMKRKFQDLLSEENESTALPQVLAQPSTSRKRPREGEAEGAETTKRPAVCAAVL
pIC50: −log10 of the molar value.

structure_string=CC1(C)Cc2c(-c3ccc(F)c(-c4cnc(N)c(C(=O)N[C@@H]5CNCC[C@H]5O)n4)c3)cnn2C1 assay_metric=pIC50 test_value="7.00 to 8.00"
structure_string=CC(C)(O)Cn1cc(-c2cccc(-c3cnc(N)c(C(=O)N[C@H]4CCCNC4)n3)c2)cn1 assay_metric=pIC50 test_value="≥ 8.00"

I have 2 compounds here; please give me pIC50 for each one.
1. N#CCn1cc(-c2cccc(-c3cnc(N)c(C(=O)N[C@@H]4CNCC[C@H]4O)n3)c2)cn1
2. CC1(C)Cc2c(-c3cccc(-c4cnc(N)c(C(=O)N[C@@H]5CNC[C@H]5O)n4)c3)cnn2C1

7.00 to 8.00
≥ 8.00

====

I'd be grateful if you could share measured pIC50 for these entries.
subject_of_test: Chk1 kinase (Homo sapiens (Human), UniProt O14757)
Sequence (O14757 whole entry): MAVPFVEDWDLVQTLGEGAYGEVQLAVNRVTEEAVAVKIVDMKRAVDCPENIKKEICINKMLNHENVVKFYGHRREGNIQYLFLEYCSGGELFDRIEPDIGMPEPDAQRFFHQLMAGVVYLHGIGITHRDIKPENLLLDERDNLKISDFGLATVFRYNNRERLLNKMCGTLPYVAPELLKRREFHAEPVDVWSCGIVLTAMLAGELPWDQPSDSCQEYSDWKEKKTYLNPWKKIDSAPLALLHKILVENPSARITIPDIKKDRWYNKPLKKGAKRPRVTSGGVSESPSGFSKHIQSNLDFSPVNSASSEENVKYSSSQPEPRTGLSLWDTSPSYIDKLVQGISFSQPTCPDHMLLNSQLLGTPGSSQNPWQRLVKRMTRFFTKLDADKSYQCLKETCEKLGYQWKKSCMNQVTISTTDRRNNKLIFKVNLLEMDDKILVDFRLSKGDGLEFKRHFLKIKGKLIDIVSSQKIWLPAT
test_name: Chk1 kinase inhibitory activity (LanthaScreen TR-FRET)
Format: biochemical
particulars: graded
pIC50: −log10 of the molar value.

compound="Cn1cc(-c2ccc(F)c(-c3cnc(N)c(C(=O)NC4CCC5(CC5)NC4)n3)c2)cn1 (racemic)" test_value="7.00 to 8.00"
compound=Cn1cc(-c2cccc(-c3cnc(N)c(C(=O)N[C@@H]4CNC[C@@H](F)C4)n3)c2)cn1 test_value="7.00 to 8.00"
compound="Cn1cc(-c2cccc(-c3cnc(N)c(C(=O)NC4CCC5(CC5)NC4)n3)c2)cn1 (racemic)" test_value="7.00 to 8.00"
compound=CC(C)(O)Cn1cc(-c2cc(-c3cnc(N)c(C(=O)N[C@@H]4CNCC(F)(F)C4)n3)c(F)cn2)cn1 test_value="< 6.00"
compound=CC(C)(O)Cn1cc(-c2ccc(F)c(-c3cnc(N)c(C(=O)N[C@@H]4CNCC(F)(F)C4)n3)c2)cn1 test_value="< 6.00"
compound=CC1(C)Cc2c(-c3ccc(F)c(-c4cnc(N)c(C(=O)N[C@@H]5CNC[C@@H](F)C5)n4)c3)cnn2C1 test_value="≥ 8.00"

Next:
Look at this compound and give its reported pIC50. Nc1ncc(-c2ccnc(-c3cnn(C4CC4)c3)c2)nc1C(=O)N[C@H]1CCCNC1
7.00 to 8.00

Taken from patent US20250188059A1.
